Biological target: TDP-43 (Homo sapiens, UniProt Q13148 1-414)
Sequence (Q13148 whole entry): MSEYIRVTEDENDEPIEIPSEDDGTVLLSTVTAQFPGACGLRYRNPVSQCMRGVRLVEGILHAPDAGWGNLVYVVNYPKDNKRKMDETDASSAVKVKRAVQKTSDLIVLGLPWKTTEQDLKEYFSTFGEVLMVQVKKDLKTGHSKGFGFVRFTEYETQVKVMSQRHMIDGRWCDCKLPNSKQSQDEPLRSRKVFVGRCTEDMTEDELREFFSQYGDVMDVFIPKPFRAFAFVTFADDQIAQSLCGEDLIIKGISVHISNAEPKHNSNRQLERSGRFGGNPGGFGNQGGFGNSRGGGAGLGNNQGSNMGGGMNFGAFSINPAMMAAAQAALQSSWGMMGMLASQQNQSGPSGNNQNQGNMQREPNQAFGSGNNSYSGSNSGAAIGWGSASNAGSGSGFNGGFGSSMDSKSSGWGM
Test: RNA Bind-n-Seq with designed 260-mer pool; 25 mM Tris-HCl, 150 mM KCl, 3 mM MgCl2, BSA (printed 500 mg/mL), 20 units/mL SUPERase IN; pH not stated; 500 nM RNA pool, 1 h, 4 C; TDP-43 5, 50, 500 nM; high values mean tight binding
Conditions: protein: recombinant; tags: SBP (GST cleaved off with PreScission; pGEX-GST-SBP)
Whole data set: some 9,900 sequences, median “r (bound/input frequency ratio)” near 0.7, cut for the highest 2% near 6.5. Only a selection was taken, and the highest values are over-represented in it overall.
MEASUREMENT NAME: binding signal

# return recorded binding signal for input ENSMUSG00000042529.389|Kcnj12 (ssRNA) RNA: GGGAGUUCUACAGUCCGACGAUCGCUUCGAUAUCCGCAUGCUAGAUGCUGGCCACAGACAUGAUCAGUCCGACUUGAGUCCCUGCCCUGCCCUGGUUAUGCAGGCUGUACGACGCAGUGUGCAUCAGUCUGAGGAGUCUGGUGGUAAGUAAGCCUCUGCAGCAGACCCUGUCGGAGGCCAUGGGGGCGUGUGUGUGUGUGUGUGUGUGUGUGUGUGUGUGUGUGUGUGUGUGUGUGUGUGAACAUGUGUGAGGGUGUGGAGGUCCCAGGGUGUGUGUAUGUGAAUGUCAGUGGCUUGGGUGCUCUCUUGCGGUCGCACUAGUGUGGAAUUCUCGGGUGUCAAGG 7.39 R (bound/input frequency ratio)

These data points were gathered from paper PMC12864922.
